molecular target: MMP-2 (Homo sapiens); construct: made in house; host or cells: MMP-2-transfected p2AHT2 cells; test: In vitro MMP inhibition, Ki determination (fluorogenic substrate II); assay type: biochemical; settings: value not in parenthesis; read-out: MMP-2 Ki
Sequence (P08253 110-660): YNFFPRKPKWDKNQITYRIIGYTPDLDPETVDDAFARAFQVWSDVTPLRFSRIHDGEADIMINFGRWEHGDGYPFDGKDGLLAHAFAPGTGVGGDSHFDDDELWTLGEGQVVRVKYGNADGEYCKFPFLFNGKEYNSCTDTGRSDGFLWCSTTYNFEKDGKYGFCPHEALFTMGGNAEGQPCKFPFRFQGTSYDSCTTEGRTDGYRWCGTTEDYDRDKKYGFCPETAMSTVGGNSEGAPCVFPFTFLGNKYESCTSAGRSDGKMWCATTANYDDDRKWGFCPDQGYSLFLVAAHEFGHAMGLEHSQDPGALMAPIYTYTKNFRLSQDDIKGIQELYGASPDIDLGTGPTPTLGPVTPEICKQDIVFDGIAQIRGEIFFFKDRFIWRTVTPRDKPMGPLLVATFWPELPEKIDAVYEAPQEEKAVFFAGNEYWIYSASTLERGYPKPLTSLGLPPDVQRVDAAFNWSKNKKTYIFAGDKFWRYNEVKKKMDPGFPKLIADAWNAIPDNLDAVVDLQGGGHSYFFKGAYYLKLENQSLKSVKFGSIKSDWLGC
QUANTITY NAME: pKi
For clarity, pKi is expressed as the negative log10 of concentration in mol/L.

Write pKi of "CCCCc1ccc(N2CCN(S(=O)(=O)C3(C(=O)NO)CCN(CCOC)CC3)CC2)cc1F" ; system used: MMP-2 (Homo sapiens) 9.68

Write pKi of "COCCN1CCC(C(=O)NO)(S(=O)(=O)N2CCN(c3ccc(OCCCCF)cc3)CC2)CC1" ; system used: MMP-2 (Homo sapiens) 9.27

Write pKi of "CCCCOc1c(F)cc(N2CCN(S(=O)(=O)C3(C(=O)NO)CCN(CCOC)CC3)CC2)cc1F" ; system used: MMP-2 (Homo sapiens) 9.31

Write pKi of "CCCCOc1ccc(N2CCN(S(=O)(=O)C3(C(=O)NO)CCN(C(=O)c4cc5ccccc5s4)CC3)CC2)cc1" ; system used: MMP-2 (Homo sapiens) 8.05

Write pKi of O=C(NO)C1(S(=O)(=O)N2CCN(c3ncccn3)CC2)CCOCC1 [Example 106] ; system used: MMP-2 (Homo sapiens) 6.87

Write pKi of "CCCCOc1ccc(N2CCN(S(=O)(=O)C3(C(=O)NO)CCN(c4ccc(OCCOC)nn4)CC3)CC2)cc1" ; system used: MMP-2 (Homo sapiens) 9.29

Write pKi of "CCCCOc1ccc(N2CCN(S(=O)(=O)C3(C(=O)NO)CCN(c4ccc(C)cn4)CC3)CC2)cc1" ; system used: MMP-2 (Homo sapiens) 8.74

Write pKi of "COc1ccc(-c2ccc(N3CCN(S(=O)(=O)C4(C(=O)NO)CCOCC4)CC3)nc2)cc1" ; system used: MMP-2 (Homo sapiens) 9.41

Write pKi of COc1ccc(N2CCN(S(=O)(=O)C3(C(=O)NO)CCOCC3)CC2)nc1 [Example 109] ; system used: MMP-2 (Homo sapiens) 6.32

Every entry's value here was drawn from patent US20050209278A1.
